- Tested on: CP256
- ASSAY_COMMENT: qHTS profiling for inhibitors of Plasmodium falciparum proliferation (AID 504749); note: nearly all actives have a fitted effect of over 60% in size
- EXPERIMENTAL_PARAMETERS: P. falciparum in erythrocytes, SYBR Green DNA, 72 h; series mostly up to 28.7 µM
Results filed as inconclusive are left out. Activity calls are given as the source filed them. Calls come from the whole dose curve; as a rule, active = well fitted inhibition curve with a large enough effect; inconclusive = small, poorly fitted or top-dose-only effect; inactive = flat fitted curve, though single readings scatter.
Your answer must be one of the following: active, inactive

Below, 5 compounds whose answers are already recorded.
COC(=O)[C@@H](N)CCCN=C(N)N[N+](=O)[O-] | inactive
CC(=O)[O][Hg][c]1ccccc1 | active
C#CC1(O)CCC2C3CCC4=CC(=O)CCC4(C)C3CCC21C (configuration not stated) | inactive
CCCCCCCCCC(CC)c1ccc(S(=O)(=O)O)cc1 (configuration not stated) | inactive
CCCCc1ccc(C(=O)O)nc1 | inactive

# lookup: test call for Cc1cc(O)ccc1Cl inactive

Test call for this compound, please: O=[N+]([O-])c1ccc([As](=O)(O)O)cc1 active

====

- ASSAY_COMMENT: qHTS for Inhibitors of the Functional Ribonucleoprotein Complex (vRNP) of Lymphocytic Choriomeningitis Arenaviruses (LCMV): Viability assay - alamar blue signal for LCMV Primary Screen (AID 1347085); note: nearly all actives have a fitted effect of over 80% in size
- EXPERIMENTAL_PARAMETERS: alamar blue viability counter-screen, LCMV vRNP screen cells; series mostly up to 57.5 µM
Inconclusive results are not listed. Active and inactive are the calls of the source. The call rests on the fitted dose curve; tested in HEK293 reporter line.
Entry note: the call must match one of yes (1) for active, no (0) for inactive

Study these solved cases before continuing.
NC(=O)c1ccc(N(C(N)=O)c2c(F)cccc2F)nc1-c1ccc(F)cc1F | yes (1)
CN(C)Cc1ccc(-c2nc3cccc4c3n2CCNC4=O)cc1 | yes (1)
CC[N+](C)(CC)CCOC(=O)C(O)(c1ccccc1)C1CCCCC1 (centres undefined) | no (0)
CCOC(=O)Nc1ccc(NCc2ccc(F)cc2)cc1N | yes (1)

In this assay, the call recorded for NC1CCc2cc(O)c(O)cc2C1 (centres undefined) was what? no (0)

Write down the call the test reported for this compound. Item: O=[N+]([O-])/N=C1\NCCN1Cc1ccc(Cl)nc1 no (0)

Check the results log: what was the call for COc1ccc(C=Cc2cc(OC)c(OC)c(OC)c2)cc1O ? no (0)

Which outcome was entered for the compound Cc1c(C)c2c(c(C)c1OC(=O)c1cccnc1)CC[C@@](C)(CCC[C@H](C)CCC[C@H](C)CCCC(C)C)O2 in this test? no (0)

What was the test verdict on CCCS(=O)(=O)Nc1ccc(F)c(C(=O)c2c[nH]c3ncc(Cl)cc23)c1F ? yes (1)

====

- Test system: PC26
- ASSAY_COMMENT: qHTS profiling for inhibitors of Plasmodium falciparum proliferation (AID 504749); note: nearly all actives have a fitted effect of over 60% in size
- EXPERIMENTAL_PARAMETERS: P. falciparum in erythrocytes, SYBR Green DNA, 72 h; series mostly up to 28.7 µM
Records with an inconclusive call do not appear. The source made the active and inactive calls. The call rests on the fitted dose curve; in most records, active means well fitted inhibition curve with a large enough effect; inconclusive means small, poorly fitted or top-dose-only effect; inactive means flat fitted curve, though single readings scatter.
Field 'call' accepts active, inactive

Example cases with answers are listed next.
C1CCC(NC2CCCCC2)CC1 | inactive
O=C(O)COc1ccccc1 | inactive
CCCN1CCC[C@H](c2cccc(O)c2)C1 | inactive
Cc1cc(O)ccc1Cl | inactive
O=C(O)C(Cl)Cl | inactive
C=CCN1CC[C@]23CCCCC2[C@H]1Cc1ccc(O)cc13 (stereo partly drawn) | inactive
O=[N+]([O-])c1ccc([As](=O)(O)O)cc1 | active

Write down the call the test reported for this molecule. Item: CC(=O)OCC1=C(C(=O)O)N2C(=O)[C@@H](N)[C@@H]2SC1 inactive
